# reported Emax (%) ±SEM; entries follow
System: CB receptor-associated G-proteins
procedure.details: Ligand stimulated [35S]GTPγS binding assay in rat brain membrane homogenate
Type: biochemical
run.conditions: specific [35S]GTPγS binding, basal set as 100%; rat brain membranes
Number in %, nothing else.

These recorded examples may help you get a feel for the data.
compound: CC(C)(C)[C@H](NC(=O)c1nn(Cc2ccc(Cl)cc2Cl)c2ccccc12)C(N)=O [LONI 3]
target.or.test.system: CB receptor-associated G-proteins
Emax (%) ±SEM: 139
--
compound: CCCCCn1cc(C(=O)c2cccc3ccccc23)c2ccccc21 [JWH-018, reference compound]
target.or.test.system: CB receptor-associated G-proteins
Emax (%) ±SEM: 163
--
compound: COC(=O)[C@@H](NC(=O)c1nn(Cc2ccc(Cl)cc2Cl)c2ccccc12)C(C)(C)C [LONI 2]
target.or.test.system: CB receptor-associated G-proteins
Emax (%) ±SEM: 143
--
compound: COC(=O)c1nn(Cc2ccc(Cl)cc2Cl)c2ccccc12 [LONI C, reference compound]
target.or.test.system: CB receptor-associated G-proteins
Emax (%) ±SEM: 69
--
compound: CC(C)C[C@H](NC(=O)c1nn(Cc2ccc(Cl)cc2Cl)c2ccccc12)C(N)=O [LONI 9]
target.or.test.system: CB receptor-associated G-proteins
Emax (%) ±SEM: 120

Exercise: Return reported Emax (%) ±SEM; argument: CC(C)[C@H](NC(=O)c1nn(Cc2ccc(Cl)cc2Cl)c2ccccc12)C(N)=O [LONI 6]
Key: 135

Exercise: Return reported Emax (%) ±SEM; argument: CC(C)C[C@H](NC(=O)c1nn(Cc2ccc(Cl)cc2Cl)c2ccccc12)C(=O)O [LONI 7]
Key: 86

Exercise: Return reported Emax (%) ±SEM; argument: CC(C)[C@H](NC(=O)c1nn(Cc2ccc(Cl)cc2Cl)c2ccccc12)C(=O)O [LONI 4]
Key: 82

Exercise: Return reported Emax (%) ±SEM; argument: CC(C)(C)[C@H](NC(=O)c1nn(Cc2ccc(Cl)cc2Cl)c2ccccc12)C(=O)O [LONI 1]
Key: 84

Exercise: Return reported Emax (%) ±SEM; argument: COC(=O)[C@H](CC(C)C)NC(=O)c1nn(Cc2ccc(Cl)cc2Cl)c2ccccc12 [LONI 8]
Key: 122

Exercise: Return reported Emax (%) ±SEM; argument: COC(=O)[C@@H](NC(=O)c1nn(Cc2ccc(Cl)cc2Cl)c2ccccc12)C(C)C [LONI 5]
Key: 140

Exercise: Return reported Emax (%) ±SEM; argument: NC(=O)c1nn(Cc2ccc(Cl)cc2Cl)c2ccccc12 [LONI B, reference compound]
Key: 70
